test.system: Receptor-type tyrosine-protein phosphatase alpha (Homo sapiens)
Sequence (P18433 whole entry): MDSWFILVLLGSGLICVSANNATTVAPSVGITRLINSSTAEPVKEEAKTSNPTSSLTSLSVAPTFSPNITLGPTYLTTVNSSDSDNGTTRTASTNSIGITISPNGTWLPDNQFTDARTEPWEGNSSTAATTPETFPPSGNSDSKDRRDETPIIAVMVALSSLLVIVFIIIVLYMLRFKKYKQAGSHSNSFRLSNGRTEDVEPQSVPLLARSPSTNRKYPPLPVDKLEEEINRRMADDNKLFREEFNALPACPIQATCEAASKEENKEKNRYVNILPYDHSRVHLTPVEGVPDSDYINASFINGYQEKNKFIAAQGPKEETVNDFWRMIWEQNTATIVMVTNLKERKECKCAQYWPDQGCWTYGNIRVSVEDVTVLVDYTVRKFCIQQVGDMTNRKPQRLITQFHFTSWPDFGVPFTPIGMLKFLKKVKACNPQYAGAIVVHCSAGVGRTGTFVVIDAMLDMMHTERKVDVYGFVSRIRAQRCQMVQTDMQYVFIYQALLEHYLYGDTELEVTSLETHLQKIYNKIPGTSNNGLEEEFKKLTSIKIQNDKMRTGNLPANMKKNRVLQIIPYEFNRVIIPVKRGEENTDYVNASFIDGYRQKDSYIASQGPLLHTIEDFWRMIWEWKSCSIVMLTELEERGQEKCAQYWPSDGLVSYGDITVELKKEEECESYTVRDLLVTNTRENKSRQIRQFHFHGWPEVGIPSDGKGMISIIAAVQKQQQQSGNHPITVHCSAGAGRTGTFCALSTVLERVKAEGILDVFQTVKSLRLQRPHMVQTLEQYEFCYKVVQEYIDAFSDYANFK
assay.text: Inhibitory effect against human protein-tyrosine phosphatase alpha (PTPalpha), using p-nitrophenyl phosphate substrate at pH 5.5.
metric: Ki (µM)

Query block: For the molecule O=C(O)C(=O)Nc1sc2c(c1C(=O)O)CCCC2 , give its reported Ki.
Result block: 290

Query block: For the molecule CC(C)Cc1ccc(-c2cc(NC(=O)C(=O)O)c(C(=O)O)s2)cc1 , give its reported Ki.
Result block: 100

Query block: For the molecule O=C(O)C(=O)Nc1cc(-c2ccccc2)sc1C(=O)O , give its reported Ki.
Result block: 250

P = O=C(O)C(=O)Nc1cc(-c2ccc(Cl)cc2)sc1C(=O)O
Q = O=C(O)C(=O)Nc1cc(-c2ccc(O)cc2)sc1C(=O)O
Query block: Hi team, can someone confirm which has the larger Ki: P or Q ? Thanks. Pick one and reply with its label.
Result block: Q
(Q: 210 µM, P: 100 µM)

1 = O=C1CCc2c(sc(NC(=O)C(=O)O)c2C(=O)O)C1
2 = Nc1cccc(-c2cc(NC(=O)C(=O)O)c(C(=O)O)s2)c1
3 = O=C(O)C(=O)Nc1ccc2cc[nH]c2c1C(=O)O
4 = COc1cc(OC)cc(-c2cc(NC(=O)C(=O)O)c(C(=O)O)s2)c1
Query block: Parameters: sort_field (Ki), sort_dir (desc). Provide your answer as the labels ordered per the instruction.
Result block: 4, 3, 2, 1
(4: 1790 µM, 3: 800 µM, 2: 250 µM, 1: 52 µM)

---

test.system: Receptor-type tyrosine-protein phosphatase F (Homo sapiens)
Sequence (P10586 whole entry): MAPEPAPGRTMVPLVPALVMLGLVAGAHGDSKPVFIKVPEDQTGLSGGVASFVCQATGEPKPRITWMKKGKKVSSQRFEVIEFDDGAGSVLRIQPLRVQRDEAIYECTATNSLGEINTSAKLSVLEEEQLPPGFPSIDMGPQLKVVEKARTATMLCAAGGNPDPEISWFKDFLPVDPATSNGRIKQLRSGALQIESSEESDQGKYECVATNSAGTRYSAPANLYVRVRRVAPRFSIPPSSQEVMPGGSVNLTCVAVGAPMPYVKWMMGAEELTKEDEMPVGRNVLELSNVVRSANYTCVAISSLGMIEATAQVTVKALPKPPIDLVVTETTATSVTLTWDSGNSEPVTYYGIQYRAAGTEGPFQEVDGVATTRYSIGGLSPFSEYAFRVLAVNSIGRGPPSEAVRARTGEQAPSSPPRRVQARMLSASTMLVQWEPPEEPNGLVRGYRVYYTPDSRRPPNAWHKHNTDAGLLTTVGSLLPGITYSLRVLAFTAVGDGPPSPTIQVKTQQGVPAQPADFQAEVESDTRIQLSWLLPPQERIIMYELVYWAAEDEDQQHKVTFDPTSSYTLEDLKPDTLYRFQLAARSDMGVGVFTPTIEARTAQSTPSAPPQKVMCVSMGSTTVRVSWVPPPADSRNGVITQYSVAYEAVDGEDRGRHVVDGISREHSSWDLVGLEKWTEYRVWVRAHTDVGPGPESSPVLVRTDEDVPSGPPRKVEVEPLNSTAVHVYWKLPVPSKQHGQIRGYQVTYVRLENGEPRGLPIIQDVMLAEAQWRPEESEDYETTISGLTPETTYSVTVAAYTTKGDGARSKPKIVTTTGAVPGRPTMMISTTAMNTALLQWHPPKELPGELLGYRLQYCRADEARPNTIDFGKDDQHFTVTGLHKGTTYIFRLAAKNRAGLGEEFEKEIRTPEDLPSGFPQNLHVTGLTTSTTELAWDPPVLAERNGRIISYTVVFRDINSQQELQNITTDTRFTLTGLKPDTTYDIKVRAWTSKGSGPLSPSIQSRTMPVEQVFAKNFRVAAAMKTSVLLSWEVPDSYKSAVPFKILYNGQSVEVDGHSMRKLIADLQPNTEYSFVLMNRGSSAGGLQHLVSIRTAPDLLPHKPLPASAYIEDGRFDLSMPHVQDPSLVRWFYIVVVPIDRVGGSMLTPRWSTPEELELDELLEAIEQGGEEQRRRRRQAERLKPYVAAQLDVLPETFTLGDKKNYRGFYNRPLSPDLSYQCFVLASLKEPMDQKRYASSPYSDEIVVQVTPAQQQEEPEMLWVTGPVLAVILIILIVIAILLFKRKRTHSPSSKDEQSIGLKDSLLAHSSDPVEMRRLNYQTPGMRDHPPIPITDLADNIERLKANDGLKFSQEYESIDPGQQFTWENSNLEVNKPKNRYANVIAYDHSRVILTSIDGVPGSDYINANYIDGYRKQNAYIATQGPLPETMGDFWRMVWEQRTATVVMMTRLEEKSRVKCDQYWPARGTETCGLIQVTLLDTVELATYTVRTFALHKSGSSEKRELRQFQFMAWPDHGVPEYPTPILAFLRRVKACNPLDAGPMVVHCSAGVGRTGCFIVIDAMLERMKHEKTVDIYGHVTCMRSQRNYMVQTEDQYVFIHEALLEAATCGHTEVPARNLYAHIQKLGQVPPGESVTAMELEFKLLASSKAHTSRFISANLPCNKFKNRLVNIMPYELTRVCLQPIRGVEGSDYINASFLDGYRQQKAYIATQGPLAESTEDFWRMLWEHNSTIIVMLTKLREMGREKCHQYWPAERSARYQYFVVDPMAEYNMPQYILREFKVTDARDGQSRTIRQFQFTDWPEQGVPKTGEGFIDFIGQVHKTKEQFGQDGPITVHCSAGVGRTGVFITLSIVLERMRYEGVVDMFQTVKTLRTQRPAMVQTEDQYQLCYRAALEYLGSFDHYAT
assay.text: Inhibitory effect against protein-tyrosine phosphatase Lar, using p-nitrophenyl phosphate as substrate at pH 5.5.
pKi: −log10 of the molar value.
metric: pKi

Query block: For the molecule O=C(O)C(=O)Nc1cc(-c2ccc(Cl)cc2)sc1C(=O)O , give its reported pKi.
Result block: 3.80

P = O=C(O)C(=O)Nc1sc2c(c1C(=O)O)CCCCC2
Q = O=C(O)C(=O)Nc1cc(-c2ccc(F)cc2)sc1C(=O)O
Query block: Hi team, can someone confirm which has the larger pKi: P or Q ? Thanks. Pick one and reply with its label.
Result block: Q

---

test.system: Tyrosine-protein phosphatase non-receptor type 1 (Homo sapiens, UniProt P18031)
Sequence (P18031 whole entry): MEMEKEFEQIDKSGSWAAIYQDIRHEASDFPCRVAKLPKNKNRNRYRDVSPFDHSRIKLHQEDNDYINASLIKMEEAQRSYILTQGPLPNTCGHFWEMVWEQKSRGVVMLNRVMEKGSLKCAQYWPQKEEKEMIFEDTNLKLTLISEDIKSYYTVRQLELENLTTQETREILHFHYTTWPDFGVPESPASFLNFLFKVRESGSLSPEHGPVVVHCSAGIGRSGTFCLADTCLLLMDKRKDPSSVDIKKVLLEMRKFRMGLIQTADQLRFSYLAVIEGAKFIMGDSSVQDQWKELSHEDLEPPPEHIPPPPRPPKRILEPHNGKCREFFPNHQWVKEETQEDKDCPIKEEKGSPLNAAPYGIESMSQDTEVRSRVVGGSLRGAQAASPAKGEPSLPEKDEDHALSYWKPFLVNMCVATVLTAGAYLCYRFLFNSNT
assay.text: Inhibition of human recombinant Protein-tyrosine phosphatase 1B.
metric: Ki (µM)

# count of solved cases: 3
Query block: For the molecule O=C(O)C(=O)Nc1sc2c(c1C(=O)O)CCN(CCc1cccc3ccccc13)C2 , give its reported Ki.
Result block: 11

Query block: For the molecule O=C(O)C(=O)Nc1sc2c(c1C(=O)O)CCN(Cc1cccnc1)C2 , give its reported Ki.
Result block: 12

Query block: For the molecule O=C(O)C(=O)Nc1sc2c(c1C(=O)O)CCN(CCc1ccc(-c3ccccc3)cc1)C2 , give its reported Ki.
Result block: 8

I = CN1CCc2c(sc(NC(=O)C(=O)O)c2C(=O)O)C1
II = O=C(O)C(=O)Nc1sc2c(c1C(=O)O)CCN(CCCc1ccccc1)C2
Query block: Hi team, can someone confirm which has the larger Ki: I or II ? Thanks. Pick one and reply with its label.
Result block: I
(I: 11 µM, II: 7.3 µM)

---

test.system: Tyrosine-protein phosphatase non-receptor type 1 (Homo sapiens)
assay.text: Inhibitory effect against recombinant human protein-tyrosine phosphatase 1B (PTP1B), using p-nitrophenyl phosphate substrate at pH 5.5.
pKi: −log10 of the molar value.
metric: pKi

# count of solved cases: 10
Query block: For the compound O=C(O)C(=O)Nc1cc(-c2ccc(O)cc2)sc1C(=O)O , give its reported pKi.
Result block: 5.35

Query block: For the compound O=C(O)C(=O)Nc1cc(-c2ccc(Oc3ccccc3)cc2)sc1C(=O)O , give its reported pKi.
Result block: 4.59

Query block: For the compound CN1CCc2c(sc(NC(=O)C(=O)O)c2C(=O)O)C1 , give its reported pKi.
Result block: 6.00

Query block: For the compound CN(C(=O)C(=O)O)c1ccccc1C(=O)O , give its reported pKi.
Result block: 2.96

Query block: For the compound O=C(O)C(=O)Nc1cc(-c2ccc(OCc3ccccc3)cc2)sc1C(=O)O , give its reported pKi.
Result block: 4.80

Query block: For the compound O=C(O)C(=O)Nc1sc2c(c1C(=O)O)CCC2 , give its reported pKi.
Result block: 4.92

Query block: For the compound O=C(O)C(=O)Nc1cc(-c2ccsc2)sc1C(=O)O , give its reported pKi.
Result block: 4.96

Query block: For the compound O=C(O)C(=O)Nc1cnccc1C(=O)O , give its reported pKi.
Result block: 3.80

Query block: For the compound O=C(O)C(=O)Nc1sc2c(c1C(=O)O)CCSC2 , give its reported pKi.
Result block: 5.08

Query block: For the compound COc1cccc(-c2cc(NC(=O)C(=O)O)c(C(=O)O)s2)c1 , give its reported pKi.
Result block: 4.92

A = O=C(O)C(=O)Nc1sc2c(c1C(=O)O)CCCCC2
B = O=C(O)C(=O)Nc1ccsc1C(=O)O
C = O=C(O)COc1ccc(-c2cc(NC(=O)C(=O)O)c(C(=O)O)s2)cc1
D = O=C(O)C(=O)Nc1cc(-c2cccc([N+](=O)[O-])c2)sc1C(=O)O
E = O=C(O)C(=O)Nc1sc2c(c1C(=O)O)CCN(Cc1ccncc1)C2
Query block: Form: Sort by [pKi] Order [ ascending ] Provide your answer as the labels ordered per the instruction.
Result block: B, A, D, C, E
